- assay_system: Recombinant canine IL-31 produced in CHO cells (canine)
- Sequence (chain, as listed by the source limits assumed, form in doubt): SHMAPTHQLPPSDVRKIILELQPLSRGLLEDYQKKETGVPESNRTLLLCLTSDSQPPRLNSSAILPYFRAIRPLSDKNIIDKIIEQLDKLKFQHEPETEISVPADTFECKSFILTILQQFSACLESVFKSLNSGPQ
- assay_info: cell-based or functional assay
# reported DH82 pSTAT Assay, Pre-treatment IC50; entries follow

- binder: "Caninized 34D03 (antibody, V domains shown) VH: EVQLVESGGDLVKPGGSLRLSCVASGFTFSNYGMSWVRQAPGKGLQWVATISYGGSYTYYPDNIKGRFTISRDNAKNTLYLQMNSLRAEDTAMYYCVRGYGYDTMDYWGQGTLVTVSS VL: EIVMTQSPASLSLSQEEKVTITCKASQSVSFAGTGLMHWYQQKPGQAPKLLIYRASNLEAGVPSRFSGSGSGTDFSFTISSLEPEDVAVYYCQQSREYPWTFGQGTKLEIKR"
  unit: "µg/ml"
  DH82 pSTAT Assay, Pre-treatment IC50: 2.25
- binder: "Chimeric 19D07 (antibody, V domains shown) VH: EVKLVESGGGLVKPGGSLKLSCAASGFAFSSYDMSWVRQIPEKRLEWVATITSGGGYTYSADSVKGRFTISRDNARNTLYLQMSSLRSEDTAVYYCARQNWVVGLAYWGQGTLVTVSA VL: DIVMSQSPSSLSVSAGDKVTMSCKSSQSLLNSGNQKNYLAWYQQKPWQPPKLLIYGASTRESGVPDRFTGSGSGTDFTLTISSVQAEDLAVYYCQNDYSYPYTFGGGTKLEIKR"
  unit: "µg/ml"
  DH82 pSTAT Assay, Pre-treatment IC50: 1.33
- binder: "Caninized 11E12 13 (antibody, V domains shown) VH: EVQLVQSGAEVKKPGASVKVSCKTSGYTFKYYDINWVRQAPGAGLDWMGWIFPGDGGTKYNETFKGRVTLTADTSTSTAYMELSSLRAGDIAVYYCARGGTSVIRDAMDYWGQGTLVTVSS VL: DIVMTQTPLSLSVSPGEPASISCRASESVDNYGISFMHWFQQKPGQSPQLLIYRASNLESGVPDRFSGSGSGTDFTLRISRVEADDAGVYYCQQSNKDPLTFGAGTKLEIKR"
  unit: "µg/ml"
  DH82 pSTAT Assay, Pre-treatment IC50: 5.18

The reported numbers originate from patent US20140315251A1.
